Where do these numbers come from? They come from PubChem BioAssay (NCI).

testName: NCI Yeast Anticancer Drug Screen. Data for the rad52 strain (AID 147);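 note: 0% = growth of vehicle-treated control cultures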
conditionDescription: S. cerevisiae rad52 mutant growth inhibition; at 100.0 µM
The panel holds about 79,000 compounds, 15% with a hit somewhere; the sample as a whole holds those more often. The source made the active and inactive calls. Cut-off read from the data, not from the text of the source: active = growth inhibition above about 70%; inactive = the rest.
Outcomes: active, inactive

>>> label("CC1=NN(C(=O)CC(=O)NC(=O)/C=C\\c2ccccc2)C(=O)C1N=Nc1ccc([N+](=O)[O-])cc1 (centres undefined)")
"active"
>>> label("C[C@H](CCC1=NC(C)(C)CO1)C1CCC2[C@@H]3C(O)C[C@@H]4CC(O)CC[C@]4(C)C3CC[C@@]21C (some centres undefined)")
"active"
>>> label("O=c1c2ccccc2nc(-c2cccc([N+](=O)[O-])c2)n1O")
"active"
>>> label("COc1cccc(/C=C2\\S/C(=N/Nc3nc(-c4ccc([N+](=O)[O-])cc4)cs3)NC2=O)c1O")
"active"
>>> label("COC(=O)/C(C#N)=C\\NC(=S)C(N)=S")
"active"
>>> label("CC1C(c2ccccc2)SC(=N)N1C (centres undefined)")
"inactive"
>>> label("Cc1ccc(NC(=O)CCC(=O)C(C)C(=O)c2ccccc2)c(C)c1 (centres undefined)")
"inactive"
>>> label("COc1cc(C2C3=C(COC3=O)Oc3cc4c(cc32)OCO4)cc(OC)c1O (centres undefined)")
"active"
>>> label("O=C(O)c1ccccc1C(=O)OC1CCc2ccccc2C1 (centres undefined)")
"inactive"
>>> label("O=C1C(CCSc2ccccc2)C(=O)N(c2ccccc2)C1c1ccccc1 (centres undefined)")
"active"
>>> label("CCCCCCNCCCNc1c2cc(OC)ccc2nc2cccc([N+](=O)[O-])c12")
"active"
>>> label("Cc1cccc2c(NCCCN(C)C)c3c([N+](=O)[O-])ccc(C)c3nc12")
"active"
>>> label("CCC(C)(C)c1ccc(Oc2ccccc2)c(N)c1")
"active"
>>> label("COC1=CCC23C(=O)C=CC(=O)C2(C1)C(=O)c1ccccc1C3=O (centres undefined)")
"active"
>>> label("Nc1cc2ccccc2cc1N")
"inactive"
>>> label("C/C(=N\\Sc1ccccc1)c1ccccc1O")
"active"
>>> label("CCOC(=O)/C(=C\\c1ccc(F)cc1)C(C)=O")
"active"
>>> label("CCOP(=O)(OCC)/C(C#N)=C/c1cccc(Oc2ccccc2)c1")
"active"
>>> label("CCC(=O)Nc1ccc(N=NN(C)C)cc1")
"active"
>>> label("CSC(=S)N/N=C/c1ccccc1")
"inactive"
>>> label("O=C(NOC(=O)c1ccc([N+](=O)[O-])cc1)c1ccc(Cl)cc1")
"active"
>>> label("CCC(/C=C/c1ccccc1)=N\\Nc1ccc(Cl)c(Cl)c1")
"active"
>>> label("CSc1nc(-c2ccccc2)nc(=[N+]2CCOCC2)s1")
"active"
>>> label("CCCCCCCCNCCCCCCCC")
"active"

---

testName: NCI Yeast Anticancer Drug Screen. Data for the cln2 rad14 strain (AID 165);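 note: 0% = growth equal to vehicle treated cultures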
conditionDescription: S. cerevisiae cln2 rad14 strain, at 5.0 µM (retest, dose inferred, filed as 0.5), hits give high values
The panel holds about 79,000 compounds, 15% with a hit somewhere; the sample as a whole holds those more often.
readoutType: growth inhibition (%)

>>> observedmeasurement("OC(Cc1cccc2ccccc12)CN1CCC(c2ccccc2)CC1 (stereo not given)")
58
>>> observedmeasurement("COc1cc2c(cc1OC)[C@@H](Nc1ccc(C#N)cc1)C1COC(=O)[C@@H]1C2c1cc(OC)c(O)c(OC)c1 (stereo not given in full)")
7
>>> observedmeasurement("CCC[CH2][Sn]([CH2]CCC)([CH2]CCC)/[C](=C/[Si](C)(C)c1ccccc1)c1ccc2c(c1)OCO2")
7
>>> observedmeasurement("CC1=C(C)C(=O)C2=C(OCCO2)C1=O")
3
>>> observedmeasurement("Cc1cccc(C)c1NC(=O)CCC(=O)C(C)C(=O)c1ccc(O)cc1 (stereo not given)")
-2
